- assay_procedure: Plasma clearance in C57BL/6 mouse at 1 mg/kg, iv or 2 mg/kg, po
- Assay type: ADME, organism-based
Mark criterion met for reported clearance of 7 mL/min/kg or greater; mark criterion not met for anything smaller.

# structure_smiles_string, category
records = [
    ("O=C(CCc1noc2c1CCc1cc(O)ccc1-2)Nc1ccccc1C(=O)O", "criterion met"),
    ("O=C(CCc1cn2c(n1)sc1cc(O)ccc12)NC1=C(C(=O)O)CCCC1", "criterion not met"),
    ("O=C(CCc1ccc2c(ccc3[nH]ncc32)c1)Nc1ccccc1C(=O)O", "criterion not met"),
    ("Cn1c(=O)c2cc(O)ccc2c2ccc(CCC(=O)Nc3ccccc3C(=O)O)cc21", "criterion not met"),
]

Attribution: ChEMBL document CHEMBL1154005
